- Tested on: Mus musculus
- Protocol Details: Biodistribution in tumor of C57BL/6 mouse xenografted with mouse B16F10 cells at 3.7 MBq, iv after 2 hrs by gamma-scintillation counting analysis
- Assay type: ADME, organism-based, Neoplasm, B16-F10
- Condition Label: in vivo
Can you tell me Drug uptake for the items I'm about to list?
Answers are plain numbers, in % ID/g.

Worked examples follow.
INSERT INTO measurements (structure_smiles, unit_label, data_value) VALUES
  ('CCN(CC)CCNC(=O)c1cc([18F])ccn1', '% ID/g', 8.66),
  ('CCN(CC)CCNC(=O)c1ccc([18F])nc1', '% ID/g', 9.29),
  ('CCN(CC)CCNC(=O)c1ccc([18F])cc1', '% ID/g', 5.94);

Fill blank: measured Drug uptake of the molecule CCN(CC)CCNC(=O)c1ccc([18F])cn1 is ____.
16.97
